meta.source: ChEMBL document CHEMBL1221267

Tested on: HCT-116
Assay: Antitumor activity against human HCT116 by sulforhodamine B assay
Assay type: functional, cell-based
pIC50: −log10 of the molar value.
Would you please tag the item YES when its pIC50 is 7 or above, and NO when it is below?

Completed entries (count: 2):
[
  {
    "substance.smiles": "COc1ccc(C)c(-c2cc3ccc(C)cc3c(N)n2)c1",
    "assigned.category": "YES"
  },
  {
    "substance.smiles": "Cc1cccc(-c2cc3ccc(C)cc3c(N)n2)c1",
    "assigned.category": "NO"
  }
]

**Q:** Reported pIC50 at or above 7? `Cc1ccc2c(N)nc(-c3ccccc3C)cc2c1`
**A:** NO

**Q:** Is the recorded value of pIC50 equal to or greater than 7 for this compound? `Cc1cccc(-c2cc3ccc(N(C)C)cc3c(N)n2)c1.Cl`
**A:** YES

**Q:** Can `COc1cc2cc(-c3cccc(C)c3)nc(N)c2cc1OC` be said to have pIC50 at or above 7?
**A:** NO

**Q:** Hello, I need to know if `COc1cc(OC)cc(-c2cc3ccc(N(C)C)cc3c(N)n2)c1` has measured pIC50 not below 7. Thanks!
**A:** YES

**Q:** Is the recorded value of pIC50 equal to or greater than 7 for this compound? `Cc1ccc2cc(-c3ccc4c(c3)OCO4)nc(N)c2c1`
**A:** NO

* * *

Test system: HCT-15
Test: Antitumor activity against human paclitaxel-resistant HCT15 by sulforhodamine B assay
Format: functional, cell-based
assay.readout: IC50
Write the numeric value and append its unit.

[
  {
    "substance.smiles": "Cc1cccc(-c2cc3ccc(N(C)C)cc3c(N)n2)c1.Cl",
    "experimental.system": "HCT-15",
    "IC50": "21 nM"
  }
]

// next item, IC50 requested
Recorded result, `COc1cccc(-c2cc3ccc(N(C)C)cc3c(N)n2)c1.Cl` , IC50: 15 nM

* * *

Test system: HCT-116
Assay: Antitumor activity against human HCT116 by sulforhodamine B assay
Assay type: functional, cell-based
// assign Condition met if IC50 falls strictly below 200 nM, else Condition not met (ties count as Condition not met)

Observe how each entry below is paired with its result.
[
  {
    "substance.smiles": "COc1ccccc1-c1cc2ccc(C)cc2c(N)n1",
    "assigned.category": "Condition not met"
  },
  {
    "substance.smiles": "Cc1ccc2cc(-c3ccccc3F)nc(N)c2c1",
    "assigned.category": "Condition not met"
  },
  {
    "substance.smiles": "COc1ccc(-c2cc3cc(C)ccc3c(N)n2)cc1",
    "assigned.category": "Condition not met"
  },
  {
    "substance.smiles": "COc1cc(OC)cc(-c2cc3cc(C)ccc3c(N)n2)c1",
    "assigned.category": "Condition not met"
  },
  {
    "substance.smiles": "Cc1ccc2c(N)nc(-c3ccccc3F)cc2c1",
    "assigned.category": "Condition not met"
  }
]

**Q:** Please state whether IC50 is below 200 nM for `COc1cccc(-c2cc3cc(N(C)C)ccc3c(N)n2)c1`
**A:** Condition met

**Q:** Is IC50 of `Cc1ccc2cc(-c3c(C)cccc3C)nc(N)c2c1` strictly below 200 nM?
**A:** Condition met

**Q:** Dear colleague, could you confirm whether IC50 of `COc1cc2cc(-c3c(C)cccc3C)nc(N)c2cc1OC` falls below 200 nM? Thanks.
**A:** Condition not met

**Q:** Strictly below 200 nM: is that where IC50 of `COc1ccc(-c2cc3ccc(N(C)C)cc3c(N)n2)cc1OC` sits?
**A:** Condition met

**Q:** Record `COc1ccccc1-c1cc2cc(C)ccc2c(N)n1` : is its IC50 strictly below 200 nM?
**A:** Condition not met

**Q:** Criterion: IC50 strictly below 200 nM. Is it met by `COc1cccc(-c2cc3cc(C)ccc3c(N)n2)c1` ?
**A:** Condition met

**Q:** Item `COc1cccc(-c2cc3ccc(N(C)C)cc3c(N)n2)c1.Cl` : IC50 beneath 200 nM, strictly?
**A:** Condition met

* * *

Test system: OVCAR-3
Assay: Antitumor activity against human OVCAR-3 by sulforhodamine B assay
Format: functional, cell-based
log10(IC50) reference
Heads up, the numbers here are log10 of IC50 in nM units.

[
  {
    "substance.smiles": "Cc1cccc(-c2cc3ccc(C)cc3c(N)n2)c1",
    "quantitative.readout": 2.46
  },
  {
    "substance.smiles": "COc1ccccc1-c1cc2cc(C)ccc2c(N)n1",
    "quantitative.readout": 2.69
  },
  {
    "substance.smiles": "Cc1ccc2c(N)nc(-c3ccccc3C)cc2c1",
    "quantitative.readout": 2.18
  },
  {
    "substance.smiles": "COc1cccc(-c2cc3ccc(N(C)C)cc3c(N)n2)c1.Cl",
    "quantitative.readout": 1.15
  },
  {
    "substance.smiles": "COc1ccc(C)c(-c2cc3ccc(C)cc3c(N)n2)c1",
    "quantitative.readout": 1.62
  },
  {
    "substance.smiles": "Cc1ccc2c(N)nc(-c3ccccc3F)cc2c1",
    "quantitative.readout": 2.76
  }
]

The compound listed as `COc1ccc(-c2cc3ccc(N(C)C)cc3c(N)n2)cc1OC` has a reported log10(IC50) of 2.15

Value of measured log10(IC50) for the entry `COc1cccc(-c2cc3cc(N(C)C)ccc3c(N)n2)c1` : 1.85

For this compound ( `Cc1ccc2cc(-c3c(C)cccc3C)nc(N)c2c1` ), measured log10(IC50) is 1.88

get_value(item= `COc1ccc(-c2cc3cc(C)ccc3c(N)n2)cc1` , readout=log10(IC50)) returns 2.90

For `Cc1ccc2cc(-c3ccccc3F)nc(N)c2c1` the compound record lists log10(IC50) as 2.96

The compound `COc1cccc(-c2cc3cc(C)ccc3c(N)n2)c1` showed log10(IC50) equal to 2.26

For record `Cc1ccc2cc(-c3ccc4c(c3)OCO4)nc(N)c2c1` the listed log10(IC50) is 2.36

The compound identified as `COc1cc2cc(-c3c(C)cccc3C)nc(N)c2cc1OC` registered its log10(IC50) at 2.20

get_value(item= `COc1cc(OC)cc(-c2cc3ccc(N(C)C)cc3c(N)n2)c1` , readout=log10(IC50)) returns 1.40

Kindly note the recorded log10(IC50) for `Cc1cccc(-c2cc3ccc(N(C)C)cc3c(N)n2)c1.Cl` , which is 1.20

// recorded log10(IC50) for `COc1ccccc1-c1cc2ccc(C)cc2c(N)n1` : 2.71

Record `COc1cc2cc(-c3cccc(C)c3)nc(N)c2cc1OC` , field log10(IC50): 2.76

Entry `COc1cc(OC)cc(-c2cc3cc(C)ccc3c(N)n2)c1` ; log10(IC50) = 2.26

* * *

A collection of molecules and their measured IC50
Tested on: PC-3
Experiment: Antitumor activity against human PC3 by sulforhodamine B assay
Format: functional, cell-based
Give your result in nM as a bare value.

As a guide, the following entries are already answered.
[
  {
    "substance.smiles": "COc1cccc(-c2cc3cc(C)ccc3c(N)n2)c1",
    "IC50 / nM": 250
  },
  {
    "substance.smiles": "COc1cc(OC)cc(-c2cc3cc(C)ccc3c(N)n2)c1",
    "IC50 / nM": 430
  }
]

// next entry
Item: `Cc1ccc2cc(-c3ccc4c(c3)OCO4)nc(N)c2c1` | IC50: 250

* * *

Tested on: PC-3
Assay: Antitumor activity against human PC3 by sulforhodamine B assay
Format: functional, cell-based
Listing of recorded IC50 by entry.
# unit: nM | format: bare number

Entry `COc1cccc(-c2cc3ccc(N(C)C)cc3c(N)n2)c1.Cl` , IC50 reported as 19

Value of IC50 reported for the molecule `COc1cc2cc(-c3c(C)cccc3C)nc(N)c2cc1OC` is 680

Recorded result, `Cc1ccc2cc(-c3c(C)cccc3C)nc(N)c2c1` , IC50: 120

GET /value?item= `Cc1cccc(-c2cc3ccc(C)cc3c(N)n2)c1` &field=IC50 returns 710

Value of IC50 reported for the molecule `COc1ccc(-c2cc3ccc(N(C)C)cc3c(N)n2)cc1OC` is 230

Value of measured IC50 for the entry `COc1cc2cc(-c3cccc(C)c3)nc(N)c2cc1OC` : 2500

The molecule listed as `COc1cc(OC)cc(-c2cc3ccc(N(C)C)cc3c(N)n2)c1` shows IC50 equal to 48

GET /value?item= `Cc1ccc2c(N)nc(-c3ccccc3C)cc2c1` &field=IC50 returns 240

* * *

Test system: PC-3
Test: Antitumor activity against human PC3 by sulforhodamine B assay
Type: functional, cell-based
assay.readout: pIC50
Lab note: report pIC50 as minus log10 of the concentration in molar units, number only.

Record excerpt, results attached:
[
  {
    "substance.smiles": "Cc1cccc(-c2cc3ccc(N(C)C)cc3c(N)n2)c1.Cl",
    "quantitative.readout": 7.62
  },
  {
    "substance.smiles": "Cc1ccc2c(N)nc(-c3ccccc3F)cc2c1",
    "quantitative.readout": 5.74
  },
  {
    "substance.smiles": "Cc1ccc2cc(-c3ccccc3F)nc(N)c2c1",
    "quantitative.readout": 5.56
  },
  {
    "substance.smiles": "COc1ccc(-c2cc3cc(C)ccc3c(N)n2)cc1",
    "quantitative.readout": 5.53
  },
  {
    "substance.smiles": "COc1cccc(-c2cc3cc(N(C)C)ccc3c(N)n2)c1",
    "quantitative.readout": 6.72
  },
  {
    "substance.smiles": "COc1ccccc1-c1cc2ccc(C)cc2c(N)n1",
    "quantitative.readout": 6.00
  }
]

// next item, pIC50 requested
Looking up `COc1ccc(C)c(-c2cc3ccc(C)cc3c(N)n2)c1` , I found its pIC50 recorded as 7.15
